Provenance of the data: patent US20190142800A1

# System: azole resistant C. albicans MTCC 227
# Run description: Checkerboard assay on azole resistant C. albicans MTCC 227
# Type: cell-based, Candida albicans
# Condition info: combination antifungal + propylene glycol monolaurate
Recorded FIC by entry
Assay endpoint: FIC

compound=C=C1CCN([C@H](C)[C@](O)(Cn2cncn2)c2ccc(F)cc2F)CC1 assay_target="azole resistant C. albicans MTCC 227" assay_endpoint=FIC result_number=0.003
compound=Clc1ccccc1C(c1ccccc1)(c1ccccc1)n1ccnc1 assay_target="azole resistant C. albicans MTCC 227" assay_endpoint=FIC result_number=0.5
compound="CC(=O)N1CCN(c2ccc(OCC3COC(Cn4ccnc4)(c4ccc(Cl)cc4Cl)O3)cc2)CC1 (stereo not shown)" assay_target="azole resistant C. albicans MTCC 227" assay_endpoint=FIC result_number=0.25
compound="CCC(C)n1ncn(-c2ccc(N3CCN(c4ccc(OCC5COC(Cn6cncn6)(c6ccc(Cl)cc6Cl)O5)cc4)CC3)cc2)c1=O (stereo not shown)" assay_target="azole resistant C. albicans MTCC 227" assay_endpoint=FIC result_number=0.0625

====

# Tested on: Trichophyton rubrum (ATCC-28188)
# Run description: Checkerboard assay of fatty acid/ester with antifungals on Trichophyton rubrum (ATCC 28188)
# Assay type: cell-based
# Condition info: Trichophyton rubrum, ATCC28188, agent alone; Table 3, glyceryl monocaprylate series
# Protocol: The synergy is measured by determining the fractional inhibitory concentration (FIC) value of the combination. […] FIC value for each agent in a particular well of the checkerboard layout was calculated by dividing the agent concentration in that well by the established MIC value of the agent against the test organism (Hsieh et al., Synergy assessed by checkerboard: A critical Analysis, Diagn. Microbiol. Infect Dis. (1993) 16:343-349). […]
Quick rule for you: MIC under 0.6 mg/L gets true, anything else gets false.

compound="CCC(C)n1ncn(-c2ccc(N3CCN(c4ccc(OCC5COC(Cn6cncn6)(c6ccc(Cl)cc6Cl)O5)cc4)CC3)cc2)c1=O (stereo not drawn)" assigned_category=true
compound=CC[C@H](C)C[C@H](C)CCCCCCCCC(=O)N[C@H]1C[C@@H](O)[C@@H](NCCN)NC(=O)[C@@H]2[C@@H](O)CCN2C(=O)[C@H]([C@H](O)CCN)NC(=O)[C@H]([C@H](O)[C@@H](O)c2ccc(O)cc2)NC(=O)[C@@H]2C[C@@H](O)CN2C(=O)[C@H]([C@@H](C)O)NC1=O assigned_category=false
compound="CC(=O)N1CCN(c2ccc(OCC3COC(Cn4ccnc4)(c4ccc(Cl)cc4Cl)O3)cc2)CC1 (stereo not drawn)" assigned_category=true
compound=C=C1CCN([C@H](C)[C@](O)(Cn2cncn2)c2ccc(F)cc2F)CC1 assigned_category=true
compound=Cc1cc(C2CCCCC2)n(O)c(=O)c1 assigned_category=false

====

Recorded Combination MIC by entry
# Test system: azole resistant C. albicans MTCC 227
# Run description: Checkerboard assay on azole resistant C. albicans MTCC 227
# Type: cell-based, Candida albicans
# Condition info: agent's MIC in combination antifungal + propylene glycol monolaurate (partner: other agent of same combination no.)
Assay endpoint: Combination MIC (µg/mL)

compound=C=C1CCN([C@H](C)[C@](O)(Cn2cncn2)c2ccc(F)cc2F)CC1 value_unit=µg/mL result_number=0.5
compound="CCC(C)n1ncn(-c2ccc(N3CCN(c4ccc(OCC5COC(Cn6cncn6)(c6ccc(Cl)cc6Cl)O5)cc4)CC3)cc2)c1=O (stereo not shown)" value_unit=µg/mL result_number=2
compound="CC(=O)N1CCN(c2ccc(OCC3COC(Cn4ccnc4)(c4ccc(Cl)cc4Cl)O3)cc2)CC1 (stereo not shown)" value_unit=µg/mL result_number=32
compound=Clc1ccccc1C(c1ccccc1)(c1ccccc1)n1ccnc1 value_unit=µg/mL result_number=8
